Test system: Splenic marginal zone lymphoma K1718
test-description: In vitro proliferation assay (MTT)
Assay type: cell-based
condition-info: Homo sapiens, 72 h, mean ± S.E.M.
value-kind: pIC50
Give bare numbers, as −log10 of the molar value.

*Q* API: value(readout= pIC50, system= Splenic marginal zone lymphoma K1718, query= CC(=O)SCCCCC[C@H](NC(=O)[C@H]1CCC(=O)N1)C(=O)Nc1ccccc1 )
*A* 7.00

* * *

test-description: PK sampling and analysis after a single oral dose of ST7612AA1 (plasma, LC-MS/MS)
Type: in vivo, CD1 mice
condition-info: male, CD1 nude, mouse; ST7464AA1 in plasma; single oral dose of 120 mg/kg of ST7612AA1
value-kind: CL/F (mL/min/kg)
Answers are plain numbers, in mL/min/kg.

*Q* Which CL/F value is on record for O=C1CC[C@H](C(=O)N[C@@H](CCCCCS)C(=O)Nc2ccccc2)N1 [ST7464AA1] ?
*A* 363

* * *

Test system: GCB-DLBCL SUDHL-4
test-description: In vitro proliferation assay (MTT)
Format: cell-based
condition-info: Homo sapiens, SU-DHL-4, 72 h, mean ± S.E.M.
Method: Anti-proliferative activity was first assessed on a panel of cell lines derived from solid tumors and hematological cancers and then on a large panel of cell lines derived from mature B-cell lymphomas. […] Lymphoma cells were seeded in 96-wells tissue culture plates in complete medium and were exposed to increasing concentrations of ST7612AA1 for 48 or 72 h; the anti-proliferative activity was assessed using 3-(4,5-dimethylthiazol-2-yl)-2,5-diphenyltetrazolium bromide (MTT). […]
value-kind: IC50
Report field: quantity (unit follows the number).

*Q* Which IC50 value is on record for CC(=O)SCCCCC[C@H](NC(=O)[C@H]1CCC(=O)N1)C(=O)Nc1ccccc1 ?
*A* 980 nM

* * *

Test system: Mantle cell lymphoma REC-1
test-description: In vitro proliferation assay (MTT)
Type: cell-based
condition-info: Homo sapiens, Rec1, 72 h, mean ± S.E.M.
value-kind: IC50 (nM)
Answers are plain numbers, in nM.

*Q* Which IC50 value is on record for CC(=O)SCCCCC[C@H](NC(=O)[C@H]1CCC(=O)N1)C(=O)Nc1ccccc1 ?
*A* 550

* * *

Tested on: GCB-DLBCL SUDHL-6
test-description: In vitro proliferation assay (MTT)
Type: cell-based
condition-info: Homo sapiens, SU-DHL-6, 72 h, mean ± S.E.M.
value-kind: IC50 (nM)
One number for each entry, in nM.

*Q* Which IC50 value is on record for CC(=O)SCCCCC[C@H](NC(=O)[C@H]1CCC(=O)N1)C(=O)Nc1ccccc1 ?
*A* 630

* * *

test-description: PK sampling and analysis after a single oral dose of ST7612AA1 (plasma, LC-MS/MS)
Assay type: in vivo, CD1 mice
condition-info: male, CD1 nude, mouse; ST7464AA1 in plasma; single oral dose of 120 mg/kg of ST7612AA1; read-out: Clast
Protocol: CD1 nude mice were used. Male mice were treated with a single dose of ST7612AA1 at 120 mg/10 mL/kg p.o., using 5% Solutol HS 15 in water for injection as vehicle. Blood samples were collected at 0.25, 0.5, 1, 2, 4 and 6 h post treatment from 5 animals per time point. Levels of ST7612AA1 and ST7464AA1 were determined in plasma by quantitative LC-MS/MS having a limit of quantification of 25 ng/mL. […]
value-kind: concentration at 6 h (ng/mL)
Numbers only, in ng/mL.

*Q* Which concentration at 6 h value is on record for O=C1CC[C@H](C(=O)N[C@@H](CCCCCS)C(=O)Nc2ccccc2)N1 ?
*A* 303

Cited source for all entries: paper PMC4467398
